For each record, write down the corresponding IC50.
Molecular target: A2B receptors (Homo sapiens)
Sequence (P29275 whole entry): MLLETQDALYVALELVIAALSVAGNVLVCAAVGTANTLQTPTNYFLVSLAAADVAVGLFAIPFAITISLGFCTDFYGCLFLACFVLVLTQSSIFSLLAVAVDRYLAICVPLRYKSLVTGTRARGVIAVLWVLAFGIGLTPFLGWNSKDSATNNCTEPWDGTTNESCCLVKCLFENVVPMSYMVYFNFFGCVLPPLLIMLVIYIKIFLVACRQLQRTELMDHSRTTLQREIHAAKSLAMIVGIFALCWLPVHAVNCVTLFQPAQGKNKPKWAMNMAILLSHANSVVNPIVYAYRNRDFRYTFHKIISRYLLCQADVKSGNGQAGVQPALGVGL
Test: functional cAMP (HTRF) assay, recombinant HEK293 cells expressing human A2B receptor, agonist NECA

COc1ccc(-c2ccccc2)c2nc(NC(=O)N3CCC(C)(O)CC3)[nH]c12 [compound 12]	< 1000 nM
COc1ccc(-c2ccccc2)c2nc(NC(=O)N3CCC(F)(F)CC3)[nH]c12 [compound 287]	< 100 nM
COc1ccc(-c2ccccc2)c2nc(NC(=O)c3ccc(N4CCOCC4)nc3)[nH]c12 [compound 8]	> 1000 nM
COc1ccc(-c2cnn(C)c2)c2nc(NC(=O)c3ccnc(N4CCC(C)(O)CC4)c3)[nH]c12 [compound 105]	< 1000 nM
CCCNC(=O)c1ccc(C(=O)Nc2nc3c(OC)ccc(-c4ccccc4)c3[nH]2)cc1 [compound 293]	< 100 nM
COc1ccc(-c2cn[nH]c2)c2nc(NC(=O)N3CCC(C)(O)CC3)[nH]c12 [compound 79]	< 1000 nM

Below are some compounds; for each one, tell me its IC50.
1. COc1ccc(-c2ccccc2F)c2nc(NC(=O)c3ccc(C(=O)N(C)C)cc3)[nH]c12 [compound 242]
2. COc1ccc(C2CCOCC2)c2nc(NC(=O)c3cnn(C)c3)[nH]c12 [compound 224]
3. COc1ccc(-c2cccnc2)c2nc(NC(=O)c3ccc(C(=O)N(C)C)cc3)[nH]c12 [compound 259]
4. COc1ccc(-c2ccccc2)c2nc(NC(=O)c3ccc(C(=O)N(C)C)cc3)[nH]c12 [compound 309]
5. COCCn1cc(C(=O)Nc2nc3c(-c4cnn(C)c4)ccc(OC)c3[nH]2)cn1 [compound 161]
6. COc1ccc(-c2ccccc2)c2nc(NC(=O)c3cnc4n3CCCC4)[nH]c12 [compound 291]

< 10 nM
< 100 nM
< 10 nM
< 10 nM
< 1000 nM
< 100 nM

----------
Assay: pharmacokinetic properties in mouse after single intravenous and oral administration
Format: in vivo
Conditions: female, plasma, 0.2 mg/kg, PK data in mouse, read-out: Vss
For each record, write down the corresponding Vd.
Numbers only, in L/kg.

COc1ccc(-c2cnn(C)c2)c2nc(NC(=O)N3CCC(C)(O)CC3)[nH]c12	1.02
COc1ccc(C2CCOCC2)c2nc(NC(=O)c3ccc(Cn4ccnc4)cc3)[nH]c12	1.01

Kindly review the next compound as well.
Fill blank: measured Vd of the compound `COc1ccc(N2CCOCC2)c2nc(NC(=O)N3CCC(C)(O)CC3)[nH]c12` is ____.
0.508

----------
Molecular target: human A1 receptor (Homo sapiens, UniProt P30542)
Construct: expressed in transfected cells; host or cells: CHO
Sequence (P30542 whole entry): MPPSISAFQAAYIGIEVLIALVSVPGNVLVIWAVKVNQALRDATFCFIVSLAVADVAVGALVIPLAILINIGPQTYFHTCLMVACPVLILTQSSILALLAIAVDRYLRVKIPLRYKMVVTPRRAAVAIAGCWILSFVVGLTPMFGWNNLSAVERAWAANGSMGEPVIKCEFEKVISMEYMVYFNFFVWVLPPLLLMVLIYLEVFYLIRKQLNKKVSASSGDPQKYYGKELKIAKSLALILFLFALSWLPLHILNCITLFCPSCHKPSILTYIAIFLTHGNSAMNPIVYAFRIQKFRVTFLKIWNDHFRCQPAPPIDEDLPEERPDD
Experiment: functional cAMP (HTRF) assay, recombinant CHO cells expressing human A1 receptor, forskolin, agonist CPA
Assay type: cell-based
For each record, write down the corresponding IC50.

COc1ccc(-c2cnn(-c3ccccn3)c2)c2[nH]c(NC(=O)N3CCC(C)(O)CC3)nc12	< 1000 nM

Below are some molecules; for each one, tell me its IC50.
1. COCCOc1cccc(-c2ccc(OC)c3nc(NC(=O)N4CCC(C)(O)CC4)[nH]c23)c1
2. COc1ccc(-c2cnn(C)c2)c2nc(NC(=O)c3ccnc(N4CCOCC4)c3)[nH]c12
3. COc1ccc(C2CCOCC2)c2nc(NC(=O)c3ccc(CN4CCCC4=O)cc3)[nH]c12
4. COc1ccc(C2CCOCC2)c2nc(NC(=O)c3ccnc(N4CC[C@@]5(CCOC5)C4)c3)[nH]c12

1: < 1000 nM; 2: > 1000 nM; 3: > 1000 nM; 4: > 1000 nM

Below are some molecules; for each one, tell me its IC50.
1. COc1ccc(-c2cnn(C(F)F)c2)c2nc(NC(=O)N3CCC(C)(O)CC3)[nH]c12
2. COCc1ccc(C(=O)Nc2nc3c(-c4cnn(C)c4)ccc(OC)c3[nH]2)cc1
3. COc1ccc(-c2ccnc3[nH]ccc23)c2[nH]c(NC(=O)N3CCC(C)(O)CC3)nc12
4. COc1ccc(-c2ccccc2)c2nc(NC(=O)c3ccnc(N4CCOCC4)c3)[nH]c12
5. COc1ccc(-c2cnn(C)c2)c2nc(NC(=O)c3ccnc(N4CCC(C)(O)CC4)c3)[nH]c12
6. COc1ccc(-c2cnn(C)c2)c2nc(NC(=O)c3ccc(CN4CCCC4=O)cc3)[nH]c12

> 1000 nM
> 1000 nM
> 1000 nM
> 1000 nM
> 1000 nM
> 1000 nM

Fill blank: measured IC50 of the molecule `COc1ccc(-c2cnn(C)c2)c2nc(NC(=O)c3ccnc(Br)c3)[nH]c12` is ____.
< 1000 nM

Origin of the recorded values: patent US11453647B2
